- Tested on: Septoria nodorum
- protocol_details: In vivo fungicidal evaluation, Wheat Septoria Nodorum (WSN)
- stated_conditions: 200 ppm foliar spray
Task for the reader: assign each of the following compounds its reported Disease control rating, WSN.

For the record CC(C)(C)C(CCc1ccc(Cl)cc1)(Cn1cncn1)OB(c1ccccc1)c1ccccc1 (stereo not drawn) , what value of Disease control rating, WSN is listed for Septoria nodorum?
0 (0)

For the record Clc1ccc(C(OB(c2ccccc2)c2ccccc2)(c2cncnc2)c2ccccc2Cl)cc1 (stereo not drawn) , what value of Disease control rating, WSN is listed for Septoria nodorum?
8 (96-99)

For the record CC(C)(C)C(CCc1ccc(Cl)cc1)(Cn1cncn1)OB(c1ccc(F)cc1)c1ccc(F)cc1 (stereo not drawn) , what value of Disease control rating, WSN is listed for Septoria nodorum?
2 (15-29)

For the record Fc1ccc(B(OC(Cn2ccnc2)c2ccc(Cl)cc2Cl)c2ccc(F)cc2)cc1 (stereo not drawn) , what value of Disease control rating, WSN is listed for Septoria nodorum?
0 (0)

For the record Clc1ccc(C(Cn2ccnc2)OB(c2ccccc2)c2ccccc2)c(Cl)c1 (stereo not drawn) , what value of Disease control rating, WSN is listed for Septoria nodorum?
0 (0)

For the record Fc1ccc(B(OC(c2ccc(Cl)cc2)(c2cncnc2)c2ccccc2Cl)c2ccc(F)cc2)cc1 (stereo not drawn) , what value of Disease control rating, WSN is listed for Septoria nodorum?
7 (90-95)
